The following molecules are listed with their measured growth inhibition values.
Experiment Description: NCI Yeast Anticancer Drug Screen. Data for the sgs1 mgt1 strain (AID 161);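 note: 0% = growth of cultures given vehicle only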
Particulars: S. cerevisiae sgs1 mgt1 strain, at 50.0 µM, stronger effect = higher value
This is part of a sample that, as a whole, favours compounds with a hit. Of some 79,000 tested, about 15% had one in any assay.
// note: answer is a bare numeric in %

INSERT INTO results (molecule, measured_metric, assay_value) VALUES
  ('C=C(C)c1nn(-c2ccccc2)c2c1C(=O)CC(C)O2 (stereo not given)', 'growth inhibition', 1.8),
  ('NC(=O)c1n[nH]n(-c2ccccc2)c1=O', 'growth inhibition', -7.75),
  ('O=C(NC(c1ccccc1)C(O)c1ccccc1)C(Cl)Cl (stereo not given)', 'growth inhibition', -1.95),
  ('CCCCCCCCCCCC(=O)N/N=C(\C)c1cccc2ccccc12', 'growth inhibition', 94),
  ('O=C(CN1CCOCC1)NC(=O)c1ccccc1', 'growth inhibition', 6.25),
  ('CCOC(=O)c1cc(-c2ccccc2)c(-c2ccccc2)c(-c2ccccc2)c1-c1ccccc1', 'growth inhibition', 19.6);

Exercise: Can you share its growth inhibition? I mean this molecule: Cc1cn(C2CC3OP(=O)(OCc4ccccc4)OCC3O2)c(=O)[nH]c1=O (stereo not given)
Solution: 16.1

Exercise: Please look up its growth inhibition: COc1cc(/C=N/N2CC(=O)N(c3cccc(Cl)c3)CC2=O)cc(OC)c1
Solution: -1.6

Exercise: Can you look up the measured growth inhibition of NC(=O)N/N=C(\CC1OC(=O)c2ccccc21)c1ccc([N+](=O)[O-])cc1 (stereo not given) for me?
Solution: -17.6

Exercise: Field request: growth inhibition | item: CC(C)N(C(=O)c1cccc2ccccc12)C(C)C
Solution: 8.35

Exercise: Bench note: what growth inhibition did CC(C)(C)OC(=O)NC(Cc1ccccc1)NC(=O)NC(=O)OCc1ccccc1 (stereo not given) show?
Solution: -6.45

Exercise: Which measured growth inhibition value corresponds to CN1CCCC(NC(c2ccccc2)c2ccccc2)C1 (stereo not given) ?
Solution: 23.9

Exercise: // growth inhibition lookup, key: O=S(=O)(Nc1ccccc1Cl)c1ccc(F)cc1
Solution: -6.6

Exercise: Returns the measured growth inhibition for the input molecule. Input: CN1C(=O)C2(C=CCCC2)c2ccccc21 (stereo not given)
Solution: -0.7

Exercise: Reported growth inhibition for Cc1ccc(-n2cc(-c3ccc(Cl)cc3)c3c(=N)n(N)cnc32)cc1 : what is it?
Solution: 49.8

Exercise: Reported growth inhibition, molecule C(=C\C[P+](c1ccccc1)(c1ccccc1)c1ccccc1)/C[P+](c1ccccc1)(c1ccccc1)c1ccccc1 : ____
Solution: 4.95

Exercise: I have this molecule here, COC(=O)c1cccc(Cl)n1 , and I need its recorded growth inhibition.
Solution: -6.95

Exercise: Given the molecule CCCCN(Cc1ccccc1)C(=O)Nc1ccccc1 , what is its reported growth inhibition?
Solution: 33.1

Exercise: State the recorded growth inhibition for this entry: NC1(C(=O)O)CC(O)(c2ccccc2)C(O)(c2ccccc2)C1 (stereo not given)
Solution: -10

Exercise: Entry under review: O=C(O)C1C2C=CC(O2)C1C(=O)NCc1ccccn1 (stereo not given) . Reported growth inhibition?
Solution: -7.3

###

Parameter growth inhibition: see the listing below.
Experiment Description: NCI Yeast Anticancer Drug Screen. Data for the mec2-1 strain (AID 157)
Particulars: S. cerevisiae mec2-1 strain, at 50.0 µM, stronger effect = higher value
Compounds without any hit were thinned out: in the full panel of roughly 79,000, 15% have a hit.
Write the value in % as a bare number.

INSERT INTO assay_data (compound, measured_metric, quantity_unit, assay_value) VALUES
  ('COc1ccc2oc3c(C)cc4c(OC)nnc(OC)c4c3c2c1', 'growth inhibition', '%', -52.9),
  ('O=S(=O)(C/C=C/COc1ccccc1)c1ccc2ccccc2c1', 'growth inhibition', '%', 2.65);

Exercise: Item COc1ccc(C2=NOC(c3ccc(OC)cc3)C2)cc1 (stereo not given) has what recorded growth inhibition?
Solution: -18.3

Exercise: Form field: reported growth inhibition of CCCCc1c2c(nc3c1CCC/C3=C\c1ccccc1)C(=O)CCC2
Solution: 9.1

Exercise: For the compound CCCC1SCC(C)(C)NC1=O (stereo not given) , what growth inhibition is on record?
Solution: 3.25

Exercise: Value lookup for growth inhibition; key = CN(C)c1nc(=NCc2ccncc2)ss1
Solution: 8.45

Exercise: Value lookup for growth inhibition; key = CC1=N/C(=C\c2ccc(N)cc2)C(=O)N1Nc1nnc(NN2C(=O)/C(=C/c3ccc(N)cc3)N=C2C)c2ccccc12
Solution: -13.3

###

Experiment Description: NCI Yeast Anticancer Drug Screen. Data for the sgs1 mgt1 strain (AID 161);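 note: 0% = growth of cultures given vehicle only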
Particulars: S. cerevisiae sgs1 mgt1 strain, at 50.0 µM, stronger effect = higher value
Compounds without any hit were thinned out: in the full panel of roughly 79,000, 15% have a hit.
Measured Metric: growth inhibition (%)
Express it in %; write the number only.

Field: example entries. Status: answers known.
INSERT INTO measurements (molecule, quantity_unit, assay_value) VALUES
  ('Nc1nc(N)c2cc(CNc3ccc(C(=O)NC(C(=O)O)C(=O)O)cc3)ccc2n1', '%', -3.15),
  ('CC(Sc1ccc([N+](=O)[O-])cn1)C(=O)O (centres undefined)', '%', 13.5),
  ('C#CCN(C)Cc1cc(OC)c(OC)c(OC)c1', '%', 6.55);

Now let's try a different one.
Exercise: What value of measured growth inhibition is listed for CCN1CCNC(=O)C1c1ccccc1 (centres undefined) ?
Solution: -17.2

###

Experiment Description: NCI Yeast Anticancer Drug Screen. Data for the cln2 rad14 strain (AID 165);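 note: 0% = growth equal to vehicle treated cultures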
Particulars: S. cerevisiae cln2 rad14 strain, at 50.0 µM, stronger effect = higher value
The panel holds about 79,000 compounds, 15% with a hit somewhere; the sample as a whole holds those more often.
Measured Metric: growth inhibition (%)
Value expressed in %; do not type the unit.

INSERT INTO measurements (compound, measured_metric, quantity_unit, assay_value) VALUES
  ('CCCCC(C(=O)OCC)C(=O)OCC', 'growth inhibition', '%', -53),
  ('S=C(NCN1CCCCC1)NCN1CCCCC1', 'growth inhibition', '%', -50.1);

Could you now look at the following compound, please?
Exercise: Reported growth inhibition for Cc1ccc(N=Nc2c(O)c(S(=O)(=O)O)cc3cc(S(=O)(=O)O)ccc23)c(C)c1 : what is it?
Solution: 6.3

###

Experiment Description: NCI Yeast Anticancer Drug Screen. Data for the mec2-1 strain (AID 157)
Particulars: S. cerevisiae mec2-1 strain, at 50.0 µM
About 79,000 compounds went through this panel and 15% of them were active in at least one assay; those are over-represented in the sample as a whole. Active and inactive are the calls of the source. No stated cut-off is given here; in the data, active means growth inhibition above about 70%; inactive means the rest.
Permitted responses: YES (active), NO (inactive)

INSERT INTO results (compound, classification) VALUES
  ('CC(=O)c1cc(C)c(O)c(C)c1', 'NO'),
  ('NNC(=O)C(O)C(O)C(=O)NN (configuration not stated)', 'NO'),
  ('CC(=O)Oc1cc2c(c3ccccc13)CCC2=O', 'NO'),
  ('ClCc1nn(-c2ccccc2)c(CCl)c1CCl', 'NO'),
  ('COC(=O)c1nnn(-c2cccc(Cl)c2)c1N', 'NO');

Exercise: Hi, sorry to bother you, what did the test record for CC(=O)NCc1cc2c3c(c1)CCCN3CCC2 ?
Solution: NO

Exercise: Dear colleague, could you share the recorded outcome for O=C1ON(c2ccccc2)C(c2cccc(Cl)c2)N1c1ccccc1 (configuration not stated) when you have a moment?
Solution: NO

###

Experiment Description: NCI Yeast Anticancer Drug Screen. Data for the rad50 strain (AID 155);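 note: 0% = growth of vehicle-only cultures of the same strain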
Particulars: S. cerevisiae rad50 strain growth inhibition; at 50.0 µM; stronger effect = higher value
Compounds without any hit were thinned out: in the full panel of roughly 79,000, 15% have a hit.
Measured Metric: growth inhibition (%)
Form entry: value (%) — number only.

# annotated cases, reported growth inhibition shown
INSERT INTO results (compound, measured_metric, assay_value) VALUES
  ('CCOC(=O)CC(=O)c1cc(OC)c(OC)c(OC)c1', 'growth inhibition', 7.05),
  ('O=C1c2cc([N+](=O)[O-])ccc2-c2c(F)cc(F)cc21', 'growth inhibition', -58.5),
  ('COc1cc(C=O)c(-c2c(C=O)ccc3c2OCO3)c(OC)c1OC', 'growth inhibition', 24.4),
  ('CCc1ccccc1NC(=O)COc1ccc(Cl)cc1', 'growth inhibition', 5.7),
  ('COC(=O)C(C(=O)C(=O)Nc1nc2ccc([N+](=O)[O-])cc2s1)c1nc2ccc(Cl)cc2[nH]c1=O (stereo not given)', 'growth inhibition', 10.3),
  ('CCOC(=O)c1c(C)nc(C)c(C(=O)OCC)c1-c1ccnc2ccccc12', 'growth inhibition', 0.9),
  ('COC1OC(OC2OC=C3C(=O)OC4CC(C)C2C34)C(O)C(O)C1O (stereo not given)', 'growth inhibition', -17.1),
  ('CCOC(=O)Nc1ccccc1F', 'growth inhibition', 4.4);

Exercise: Return reported growth inhibition; argument: COC1=CC(O)(CC(N)=O)c2ccccc2C1=O (stereo not given)
Solution: -5.3

Exercise: Requested read-out: growth inhibition. Entry: CCC(C)NC(=O)/C(=C\c1ccccc1O)NC(=O)c1ccccc1 (stereo not given)
Solution: -30.1

# credit: PubChem BioAssay (NCI)
